settings: rat; liver microsomes; pH 7.4; 15.0 min; 1.0 µM
Reported values of half-life for individual entries
Response body: numeric value in min, unit text excluded.

O=C(CCCCn1c(=O)[nH]c2ccsc2c1=O)N1CCN(c2cccc(Cl)c2)CC1 ... 8.06

Q: Need half-life of COc1ccc(Nc2nnc(-c3ccc(C)c(S(=O)(=O)NCc4nc5ccccc5[nH]4)c3)c3ccccc23)cc1 , thanks.
Ans: 5.72

Q: Need half-life of Cc1ccc(S(=O)(=O)Nc2ccc(Br)cc2C(=O)Nc2nc(-c3ccccc3)cs2)cc1 , thanks.
Ans: 8.9

Q: Need half-life of CCC[C@@H]1CN(C(=O)c2ccc(-c3ccc(C)o3)cc2)C[C@H]1NC(C)=O , thanks.
Ans: 13.2

Q: Need half-life of COC1C(OC(=O)c2ccc(C)[nH]2)C(O)C(Oc2ccc3c(O)c(NC(=O)c4ccc(O)c(CC=C(C)C)c4)c(=O)oc3c2Cl)OC1(C)C (centres undefined) , thanks.
Ans: 28.3

Q: Need half-life of COC(=O)c1ccnc(-c2cc(C(=O)NCCc3ccccc3)ccn2)c1 , thanks.
Ans: 1.98

Q: Need half-life of Fc1cc(Nc2nc(-c3ccncc3)nc3ccccc23)ccc1-c1ccc(F)c(F)c1F , thanks.
Ans: 24

Q: Need half-life of Cc1cc(-c2nnc3n2CCCCC3)c(C)n1-c1ccc(Cl)cc1 , thanks.
Ans: 1.9

Q: Need half-life of CC(=O)c1cccc(-c2csc3ncnc(Sc4nnnn4C)c23)c1 , thanks.
Ans: 3.08

Q: Need half-life of COc1ccc(CN2CCc3c(c(=O)n4ncc(C(=O)N5CCN(c6ccccc6OC)CC5)c4n3C)C2)cc1 , thanks.
Ans: 1.97

Q: Need half-life of CCOc1ccc(CCNC(=O)c2cc3sccc3n2Cc2ccc(-n3cncn3)cc2)cc1OCC , thanks.
Ans: 4.3

Q: Need half-life of CCOc1ccc(CCNC(=O)c2cc3sccc3n2Cc2ccccc2)cc1OCC , thanks.
Ans: 1.7

---

Reported values of log10 half-life for individual entries
conditions: rat; liver microsomes; pH 7.4; 15.0 min; 1.0 µM
Please interpret these as log10 of half-life where half-life is in min.

Q: Need log10 half-life of CC(C)Oc1ccc(C(=O)Nc2ccc3c(c2)CCCN3C(=O)c2cccs2)cc1 , thanks.
Ans: 0.68

---

Reported values of half-life for individual entries
conditions: rat; liver microsomes; pH 7.4; 15.0 min; 1.0 µM
Response body: numeric value in min, unit text excluded.

CC(C)Oc1ccccc1C(=O)Nc1nc(-c2ccccc2)cs1 ... 9

Q: Need half-life of O=S(=O)(Nc1ccc2ccccc2c1)c1ccc(NCc2ccc(Br)cc2O)cc1 , thanks.
Ans: 15

Q: Need half-life of CN[C@@H]1C[C@@H](c2ccc(Cl)c(Cl)c2)c2ccccc21 , thanks.
Ans: 17.2

Q: Need half-life of O=C(Nc1ccc(S(=O)(=O)N2CCN(Cc3ccccc3)CC2)cc1)c1cnccn1 , thanks.
Ans: 1.8

Q: Need half-life of COc1cccc(CNCc2cccn2-c2nnc(N3CCN(c4ccccc4)CC3)s2)c1 , thanks.
Ans: 2.06

Q: Need half-life of Cc1cccc2oc(NC3=NC(c4[nH]ncc4Cl)C4=C(CCCC4=O)N3)nc12 (stereo not given) , thanks.
Ans: 10.6

---

settings: rat; liver microsomes; pH 7.4; 15.0 min; 1.0 µM
Experimental Endpoint: half-life

// solved cases for half-life follow
Cc1ccc(-c2cc(C(=O)Nc3ccccn3)c3ccccc3n2)cc1 ... 23.8 min
O=C(Nc1nc(-c2ccc(F)cc2)cs1)c1ccncc1NS(=O)(=O)c1ccccc1Cl ... > 30 min
CCOC(=O)N1CCN(Cc2nc3c(c(=O)n(C)c(=O)n3C)n2Cc2ccc(F)cc2)CC1 ... 8.7 min
Fc1cc(Nc2nc(-c3ccncc3)nc3ccccc23)ccc1-c1ccncc1 ... 13 min
Cc1ccnc(NC(=S)N2CC[C@@H](Nc3cccc(C(F)(F)F)c3)C2)c1 ... 3.5 min

Q: Need half-life of CCCc1ccc(-c2csc(NC(=O)c3ccncc3NS(=O)(=O)c3ccc(C)cc3)n2)cc1 , thanks.
Ans: 3.3 min

Q: Need half-life of Fc1cnc(-c2ccccc2C(F)F)nc1NCc1ccc(-c2cccnc2)cc1 , thanks.
Ans: 7.1 min

Q: Need half-life of COC(=O)c1ccc(Oc2nc3c(c(=O)n(C)c(=O)n3C)n2CCC(C)C)cc1 , thanks.
Ans: 2.7 min

Q: Need half-life of O=C(Nc1nc(-c2ccccc2)cs1)c1ccncc1NS(=O)(=O)c1ccc(-c2ccccc2)cc1 , thanks.
Ans: 2 min

Q: Need half-life of C[C@H]1CCC[C@H](O)CCC/C=C/c2cc(O)cc(O)c2C(=O)O1 , thanks.
Ans: 15.2 min

---

Reported values of half-life for individual entries
details: rat; liver microsomes; pH 7.4; 15.0 min; 1.0 µM
Response body: numeric value in min, unit text excluded.

Q: Need half-life of Cc1ccc(C(=O)N2CCc3sc(C(=O)NC(C)c4ccccc4)cc3C2)cc1 (stereo unspecified) , thanks.
Ans: 4.79

Q: Need half-life of c1ccc(C2=Nn3c(nnc3-c3ccncc3)SC2)cc1 , thanks.
Ans: 9.1

Q: Need half-life of CN(C)c1cccc(-c2ncnc(N3CCC(C(N)=O)CC3)n2)c1 , thanks.
Ans: 5.7

Q: Need half-life of COc1ccc(-c2[nH]nc3ncc(-c4ccc(CO)cc4)nc23)cc1F , thanks.
Ans: 11.3

Q: Need half-life of COc1ccc(NC(=O)c2c(C)cccc2C)cc1[S+](=O)([O-])N1CCCCC1 , thanks.
Ans: 4.2

Q: Need half-life of CCCN1C(CC(C)C)=NS(=O)(=O)c2cc(NC(=O)c3ccco3)ccc21 , thanks.
Ans: 9.21

Q: Need half-life of Cc1ccc(S(=O)(=O)c2cnc(SC(C)C(=O)Nc3ccccc3)[nH]c2=O)cc1 (stereo unspecified) , thanks.
Ans: 10.7

---

Reported values of half-life for individual entries
settings: rat; liver microsomes; pH 7.4; 15.0 min; 1.0 µM
Response body: numeric value in min, unit text excluded.

Cc1ccc(S(=O)(=O)Nc2cnccc2C(=O)Nc2nc(-c3ccc(C)c(C)c3)cs2)cc1 ... 2.1
CCN(CC)S(=O)(=O)c1cccc(C(=O)Nc2ccc(C#N)cc2)c1 ... 3.8
C=C[C@]1(C)C[C@@H](OC(=O)CSC(C)(C)CNC(=O)[C@H](N)C(C)C)[C@]2(C)[C@H](C)CC[C@]3(CCC(=O)[C@H]32)[C@@H](C)[C@@H]1O ... 2.06
Cc1ccc(S(=O)(=O)Nc2cccc(C(=O)Nc3nc(-c4ccccc4)cs3)c2)cc1 ... 16
O=C1Nc2ccccc2/C1=C\c1ccc([N+](=O)[O-])cc1 ... 4.92

Q: Need half-life of Cc1noc(C)c1-c1ccc2ncnc(NCc3cccc(Cl)c3)c2c1 , thanks.
Ans: 5.19

Q: Need half-life of Cc1cccc2nc(-c3ccccn3)c(Nc3ccc(F)cc3)n12 , thanks.
Ans: 6.75

---

conditions: rat; liver microsomes; pH 7.4; 15.0 min; 1.0 µM
Experimental Endpoint: half-life (min)
Response body: numeric value in min, unit text excluded.

// solved cases for half-life follow
COC(=O)c1nc(-c2cccc3ccccc23)oc1OC ... 14
CCN1CCCC1CNCc1ccccc1 (configuration not stated) ... 2.5
O=C(CCc1ccccc1)NC(c1cccs1)c1cc(Cl)c2cccnc2c1O (configuration not stated) ... 2.14
COc1ccccc1NC(=O)c1oc2ccccc2c1NC(=O)Cc1cccs1 ... 6.77
CN1C(=O)c2ccccc2[S@](=O)c2ccc(C(=O)NCc3ccc(Cl)cc3)cc21 ... 15
Cc1cc(F)ccc1S(=O)(=O)Nc1cnccc1C(=O)Nc1nc(-c2ccccc2)cs1 ... 20
c1ccc(-c2csc3ncnc(Sc4nnn(-c5ccccc5)n4)c23)cc1 ... 1.5
Cc1c(O)ccc2c1OC(C)(C)CC2 ... 3.9
Cc1nc(NC(=O)C2CC(=O)N(c3n[nH]c4cc(Br)ccc34)C2)sc1C (configuration not stated) ... 18.5
O=C(Nc1cccc(Cc2ccccc2)n1)c1ccc(-c2cccc([N+](=O)[O-])c2)o1 ... 1.7

Q: Need half-life of O=S(=O)(c1ccc2ccccc2c1)N1CCN(c2nc(-c3cccs3)nc3ccccc23)CC1 , thanks.
Ans: 2.34

Q: Need half-life of Cc1ccc(-n2c(C)cc(-c3nnc4n3CCCCC4)c2C)cc1 , thanks.
Ans: 1.62

---

conditions: rat; liver microsomes; pH 7.4; 15.0 min; 1.0 µM
Reported values of half-life for individual entries
Response body: numeric value in min, unit text excluded.

COc1ccccc1S(=O)(=O)Nc1cnccc1C(=O)Nc1nc(-c2ccccc2)cs1 ... 16
CC(C)(C)c1ccc(C(=O)N2CC(=O)Nc3ccc(F)cc3C2c2ccc(F)cc2)cc1 (configuration not stated) ... 8.57
CCOc1ccc(NC(=O)CSC2=Nc3ccccc3C3=NC(CC(=O)NCc4cccs4)C(=O)N23)cc1 (configuration not stated) ... 4.16

Q: Need half-life of Cc1ccc(-c2csc(N3CCC(C(N)=O)CC3)n2)cc1 , thanks.
Ans: 2.22

Q: Need half-life of COc1ccc(NC(=O)c2cccnc2)cc1S(=O)(=O)Nc1ccc(Br)cc1 , thanks.
Ans: 21

Q: Need half-life of CCCCOc1ccc(C(=O)N2CCC(c3n[nH]c(=O)n3-c3ccc(C)cc3)CC2)cc1 , thanks.
Ans: 5.43

Q: Need half-life of CC(=O)N[C@H]1CN(C2CCN(c3ccc(F)cc3C)CC2)C[C@@H]1C1CC1 , thanks.
Ans: 2.3

Q: Need half-life of Cc1ccccc1C(C(=O)NC1CCCC1)N(C(=O)Cn1cnc2ccccc21)c1cccc(F)c1 (configuration not stated) , thanks.
Ans: 1.67

Q: Need half-life of Cc1ccc(-c2ccc(CNc3nc(-c4ccccc4C(C)C)ncc3F)cc2)cn1 , thanks.
Ans: 4.5

Q: Need half-life of Oc1ccc(CNc2cccc(F)c2F)c2cccnc12 , thanks.
Ans: 6.35

Q: Need half-life of c1ccc(Nc2cc(-c3ccoc3)ncn2)cc1 , thanks.
Ans: 8.6

Q: Need half-life of Cc1ccc(S(=O)(=O)Nc2cc(Br)ccc2C(=O)Nc2nc(-c3ccccc3)cs2)cc1 , thanks.
Ans: 9.6

Q: Need half-life of Cc1ccc2c(c1)/C(=C\c1cc(Cl)c(O)c(Cl)c1)C(=O)N2 , thanks.
Ans: 22

Q: Need half-life of CCc1ccc2oc(=O)cc(CN3CCN(c4ccccc4F)CC3)c2c1 , thanks.
Ans: 3
